Assay: growth inhibition of non-replicating M. tuberculosis (AID 488890);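 note: plate controls were DMSO cells for no effect and high antibiotic wells for full effect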
Conditions: Mycobacterium tuberculosis non-replicating, at 25 µM, stronger effect = higher value
Hit rate of the full screen: of about 320,000 compounds, about 1,300 (0.41%) were called active. About 3% were inconclusive and are not listed. Not all results are given here. Measured potencies and affinities stand elsewhere.
RECORDED ENDPOINT: inhibition

# input Provide one value: measured inhibition of CCCC1CC(C)(C(=O)CSc2n[nH]c(-c3ccccc3)n2)OC1=O (stereo not given)
# output -9.58%

# input Provide one value: measured inhibition of COc1ccc(-c2cc(=O)oc3cc(OCC(=O)N(C)C)ccc23)cc1
# output -18.8%

# input Provide one value: measured inhibition of COc1ccc(-c2cc3ccc(OC(C)C(=O)O)cc3oc2=O)cc1 (stereo not given)
# output -4.62%

# input Provide one value: measured inhibition of Cc1[nH]c(C)c(S(=O)(=O)Nc2cccc(Cl)c2C)c1C(=O)N1CCCC1
# output 6.67%

# input Provide one value: measured inhibition of COc1ccc(-c2cc3ccc(OCC(N)=O)cc3oc2=O)cc1OC
# output 17.8%

# input Provide one value: measured inhibition of CCc1ccc(N2CC(C(=O)Nc3ccc(S(=O)(=O)NCC4CCCO4)cc3)CC2=O)cc1 (stereo not given)
# output -5.44%

# input Provide one value: measured inhibition of CC(=O)COc1ccc2c(-c3cccc([N+](=O)[O-])c3)cc(=O)oc2c1
# output -17.4%

# input Provide one value: measured inhibition of Fc1cccc(Nc2cc(-n3cccn3)ncn2)c1
# output 21.4%

# input Provide one value: measured inhibition of COc1ccc(-c2cc(=O)oc3cc(OCC(C)=O)ccc23)cc1
# output 36.8%

# input Provide one value: measured inhibition of COC(=O)C(C)Oc1ccc2c(-c3cccc([N+](=O)[O-])c3)cc(=O)oc2c1 (stereo not given)
# output 67.4%
